The reported numbers originate from paper PMC9911399.

List of binding signal values.
Target: T1, RBFOX1 RRM RbFoxmut (Fox-RRM*) (Homo sapiens, UniProt Q9NWB1 109-208, R118D;E147R;N151S;E152T)
T1 sequence: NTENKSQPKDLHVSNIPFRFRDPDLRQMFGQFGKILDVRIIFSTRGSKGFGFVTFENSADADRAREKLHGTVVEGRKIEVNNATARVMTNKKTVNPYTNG
Assay: EMSA; HiTS-Eq, 1 nM pool, 10 min; buffer printed only for the single-RNA assays: 10 mM Tris pH 7.5, 150 mM NaCl, 3.4 mM EDTA, 0.001% NP-40, 30 C
Conditions: tags: His6 N-terminal (pET28a); label: 5' 32P
The full ranking holds about 16,000 sequences; the median of “ka relative to ugcaugu” is about 0.096, and the highest 2% start at about 0.35. What follows is part of a selection rich in the highest values, with near analogues and random picks from the rest.

Query :: // binding signal lookup, key: CCUGCAU (DNA:RNA) RNA: GGGAGACCGGAAUUCAGAUUGUCCCCUGCAUUUAAAUCCCGUCGUAGCCACCA DNA 1: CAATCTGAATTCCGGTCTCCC DNA 2: TGGTGGCTACGACGGGATT
Result :: 0.139 KA relative to UGCAUGU

Query :: What binding signal value was documented for this binder, AGCGUUA (DNA:RNA) RNA: GGGAGACCGGAAUUCAGAUUGUCCAGCGUUAUUAAAUCCCGUCGUAGCCACCA DNA 1: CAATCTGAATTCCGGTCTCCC DNA 2: TGGTGGCTACGACGGGATT ?
Result :: 0.113 KA relative to UGCAUGU

Query :: Given the binder AUGUGUC (DNA:RNA) RNA: GGGAGACCGGAAUUCAGAUUGUCCAUGUGUCUUAAAUCCCGUCGUAGCCACCA DNA 1: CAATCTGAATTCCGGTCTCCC DNA 2: TGGTGGCTACGACGGGATT , what is its reported binding signal?
Result :: 0.289 KA relative to UGCAUGU

Query :: Tell me the measured binding signal of UGGCAGA (DNA:RNA) RNA: GGGAGACCGGAAUUCAGAUUGUCCUGGCAGAUUAAAUCCCGUCGUAGCCACCA DNA 1: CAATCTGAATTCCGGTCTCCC DNA 2: TGGTGGCTACGACGGGATT , please.
Result :: 0.0918 KA relative to UGCAUGU

Query :: If you can, please state the reported binding signal value of AAUUGGG (DNA:RNA) RNA: GGGAGACCGGAAUUCAGAUUGUCCAAUUGGGUUAAAUCCCGUCGUAGCCACCA DNA 1: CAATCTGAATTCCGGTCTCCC DNA 2: TGGTGGCTACGACGGGATT .
Result :: 0.0731 KA relative to UGCAUGU

Query :: May I ask what binding signal has been recorded for UGCAAUC (DNA:RNA) RNA: GGGAGACCGGAAUUCAGAUUGUCCUGCAAUCUUAAAUCCCGUCGUAGCCACCA DNA 1: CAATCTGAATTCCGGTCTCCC DNA 2: TGGTGGCTACGACGGGATT ?
Result :: 0.102 KA relative to UGCAUGU

Query :: What does the data say about its binding signal? Entry: UGGCAUA (DNA:RNA) RNA: GGGAGACCGGAAUUCAGAUUGUCCUGGCAUAUUAAAUCCCGUCGUAGCCACCA DNA 1: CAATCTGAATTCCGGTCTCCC DNA 2: TGGTGGCTACGACGGGATT
Result :: 0.127 KA relative to UGCAUGU

Query :: What value of binding signal has been recorded for this entry: GCCAUGA (DNA:RNA) RNA: GGGAGACCGGAAUUCAGAUUGUCCGCCAUGAUUAAAUCCCGUCGUAGCCACCA DNA 1: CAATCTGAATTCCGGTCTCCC DNA 2: TGGTGGCTACGACGGGATT
Result :: 0.134 KA relative to UGCAUGU

Query :: // query binding signal value for entry CUGAGUG (DNA:RNA) RNA: GGGAGACCGGAAUUCAGAUUGUCCCUGAGUGUUAAAUCCCGUCGUAGCCACCA DNA 1: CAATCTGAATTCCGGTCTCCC DNA 2: TGGTGGCTACGACGGGATT
Result :: 0.142 KA relative to UGCAUGU
